Test: label from the status in PepcDB records
Outcome Measure: protein production

DNKKIILEFSSPNTNKPLHVGHLRNDVIGESLSRILKAVGAKITKINLINDRGVHICKSMLAYKKFGNGITPEKAFKKGDHLIGDFYVKYNKYSQENENAEKEIQDLLLLWEQKDVSTIELWKKLNKWAIEGIKETYEITNTSFDKIYLESEIFKIGKNVVLEGLEKGFCYKREDGAICIDLPSDSDEKADTKVKQKVLIRSNGTSIYLTQDLGNIAVRTKEFNFEEMIYVVGSEQIQHFKSLFFVAEKLGLSKNKKLIHLSHGMVNLVDGKMKSREGNVIDADNLISNLIELIIPEMTQKIENKESAKKNALNIALGAIHYYLLKSAIHKDIVFNKKESLSFTGNSGPYIQYV failed
MNQTKTTDDNNNNSKPDETESTTTVPEWITETINGGSFHHVDLETGTNGWASPPGNVFSLRSNNYFTTKQKSPGGDYLLSLIAVDWLKSTTKKLDHILCRPDNRVIHALETSQSRSFIFAVNFQIPGKEHYHLVLYFATEKPIPSDSILHKFINIDDDSFRNERFKVVTNVVKGPWVVKATAGKLGAFLAGKVVKCSYYRGANYFEVDVDFSISAIYSALVRLTLGYVTNLVADVGFVVEAQTEEELPERLIGGGRVCYMELSSAFLVDDGKKMGAAEGNHSEDEI failed

====

Test: label from the status in PepcDB records
Outcome Measure: protein production

Some entries whose results are on file:
SNSALYNVDAGHRAVIFDRFRGVQDIVVGEGTHFLIPWVQKPIIFDCRSRPRNVPVITGSKDLQNVNITLRILFRPVASQLPRIYTSIGEDYDERVLPSITTEILKSVVARFDAGELITQRELVSRQVSDDLTERAATFGLILDDVSLTHLTFGKEFTEAVEAKQVAQQEAERARFVVEKAEQQKKAAIISAEGDSKAAELIANSLATAGDGLIELRKLEAAEDIAYQLSRSRNITYLPAGQSVLLQLPQ not failed
MDPAVFEEWMMIILVTVLIGFMGFIVWDLAKKSKAGKFGTLILFFVLGLGVLAFIIKSVVVGFLEGV failed
MSSLFNVNAQFWASLIDSPLKILVHILDIAIVSWLIYKFIKALAGTKVMSLVQGVVLFVLFKFVAEFLGFTTIAFLMNQVITYGVIAGVVIFAPEIRSGLERFGRTPQSFIQRQQLSDDEKLVAAFVKAVAYMSPRKIGALVSIEETQTLREYIATGIPLDADISGELLINIFIPNTPLHDGAVIVEGNKIAVSCAYLPLSESSHISKEFGTRHRAAIGLSEASDAFTFVVSEETGAISVAYKGDFIHDLSLEAFEVLLREHFIKEEPKKKNWMKQFFGGRHHV failed
MFVHLSVELMQHLSAAALAFTVVTYVVLDGTDLGVGMLFAANRSDADRHLMAYSILPVWDGNETWLVLGGGSLLAMFPSAYAIFLNATYVPLVVMLLALICRGVALEYRDQLGTDRRRRVLDVVFMVASLLATFCQGVVAGTYLAGVAHRAGQYAGNGREWLQPFPLFCGVALVVGYLLLGACWLVWRSEGQLQQRARHQARVLGIVLGALLTLGVVWLARLTPIYAQRLGDAHISVPLGTSVLGLMVAMYLLMRSRHAFLPLFAVLGVVVATYAGVLAIVYPMVLPPDITLAQAASPPASQGVMLLAFAVLVPCTLAYSSYGFYVFRGKVKPRGHAAE failed
MAADKLADEVACMANTPGGGALIVGIEDKTGRIIGTELDIDWLRQGIFTRIDVAPDVVAKRVLGQRVLAIYVAAAAEPIEDTSDRLRWRVGDSCRPVDLEHHHHHH failed

Below are 2 sequences. Give each one its protein production.
1. GGLTEICRKPVSPGCISSVSDWLISIGLPMYAGTLSTAGFSTLSQVPSLSHTCLQEAGITEERHIRKLLSAARLFKLPPGPEAM
2. MAGQSDRKAALLDQVARVGKALANGRRLQILDLLAQGERAVEAIATATGMNLTTASANLQALKSGGLVEARREGTRQYYRIAGEDVARLFALVQVVADEHLADVAVAAADVLGSPEDAITRAELLRRREAGEVTLVDVRPHEEYQAGHIPGAINIPIAELADRLAELAGDRDIVAYCRGAYCVMAPDAVRIARDAGREVKRLDDGMLEWRLAGLPVDEGAPVGHGD

1. not failed
2. failed
